PROTOCOL_DESCRIPTION: First-in-man PK: compound (1) plasma levels after single oral ascending dose of compound (2)
Assay type: in vivo, human
ASSAY_SETUP: male, human, plasma, po, 50 mg, 50 mg compound (2) single oral, N=6; read-out: AUC0-∞, GM (geometric mean)
ATTRIBUTE_MEASURED: AUC(0-inf)
Could you kindly put the unit after your number?

Query (compound): O=C(O)[C@H]1O[C@@H](N(c2ccc(OC(F)(F)F)cc2)c2ccc3cccc(Cl)c3n2)[C@H](O)[C@@H](O)[C@@H]1O [Compound 1] ; field requested: AUC(0-inf)
198 µg·h/mL

====

PROTOCOL_DESCRIPTION: First-in-man PK: compound (1) plasma levels after single oral ascending dose of compound (2)
Assay type: in vivo, human
ASSAY_SETUP: male, human, plasma, po, 200 mg, 200 mg compound (2) single oral, N=6; read-out: AUC0-∞, Mean
ATTRIBUTE_MEASURED: AUC(0-inf) (µg·h/mL)
Respond with the bare value in µg·h/mL.

Query (compound): `O=C(O)[C@H]1O[C@@H](N(c2ccc(OC(F)(F)F)cc2)c2ccc3cccc(Cl)c3n2)[C@H](O)[C@@H](O)[C@@H]1O` ; field requested: AUC(0-inf)
560

====

PROTOCOL_DESCRIPTION: First-in-man PK: compound (1) plasma levels after single oral ascending dose of compound (2)
Assay type: in vivo, human
ASSAY_SETUP: male, human, plasma, po, 50 mg, 50 mg compound (2) single oral, N=6; read-out: AUC0-∞, Mean
ATTRIBUTE_MEASURED: AUC(0-inf) (µg·h/mL)
Respond with the bare value in µg·h/mL.

Query (molecule): O=C(O)[C@H]1O[C@@H](N(c2ccc(OC(F)(F)F)cc2)c2ccc3cccc(Cl)c3n2)[C@H](O)[C@@H](O)[C@@H]1O [Compound 1] ; field requested: AUC(0-inf)
212

====

PROTOCOL_DESCRIPTION: First-in-man PK: compound (1) plasma levels after single oral ascending dose of compound (2)
Assay type: in vivo, human
ASSAY_SETUP: male, human, plasma, po, 100 mg, 100 mg compound (2) single oral, N=6; read-out: AUC0-t, GM (geometric mean)
Protocol: The present document details the pharmacokinetic (PK) results obtained in a first-in-man study with compound (2) consisting in a single oral ascending dose in healthy male subjects. Four (4) dose levels were investigated (50, 100, 150, and 200 mg). […] In this study, plasma levels of compound (1) were measured. […] Cmax The observed maximum concentration measured in plasma was obtained directly from the concentration-time data. […]
ATTRIBUTE_MEASURED: AUC(0-t) (µg·h/mL)
Respond with the bare value in µg·h/mL.

Query (compound): `O=C(O)[C@H]1O[C@@H](N(c2ccc(OC(F)(F)F)cc2)c2ccc3cccc(Cl)c3n2)[C@H](O)[C@@H](O)[C@@H]1O` ; field requested: AUC(0-t)
468

====

PROTOCOL_DESCRIPTION: First-in-man PK: compound (1) plasma levels after single oral ascending dose of compound (2)
Format: in vivo, human
ASSAY_SETUP: male, human, plasma, po, 100 mg, 100 mg compound (2) single oral, N=6; read-out: Cmax, Mean
ATTRIBUTE_MEASURED: Cmax (ng/mL)
Respond with the bare value in ng/mL.

Query (compound): `O=C(O)[C@H]1O[C@@H](N(c2ccc(OC(F)(F)F)cc2)c2ccc3cccc(Cl)c3n2)[C@H](O)[C@@H](O)[C@@H]1O` ; field requested: Cmax
5720

====

PROTOCOL_DESCRIPTION: First-in-man PK: compound (1) plasma levels after single oral ascending dose of compound (2)
Format: in vivo, human
ASSAY_SETUP: male, human, plasma; 200 mg compound (2) single oral, N=6; read-out: tmax, median
ATTRIBUTE_MEASURED: Tmax (h)
Respond with the bare value in h.

Query (compound): `O=C(O)[C@H]1O[C@@H](N(c2ccc(OC(F)(F)F)cc2)c2ccc3cccc(Cl)c3n2)[C@H](O)[C@@H](O)[C@@H]1O` ; field requested: Tmax
6

====

PROTOCOL_DESCRIPTION: First-in-man PK: compound (1) plasma levels after single oral ascending dose of compound (2)
Format: in vivo, human
ASSAY_SETUP: male, human, plasma, po, 200 mg, 200 mg compound (2) single oral, N=6; read-out: Cmax, Mean
ATTRIBUTE_MEASURED: Cmax (ng/mL)
Respond with the bare value in ng/mL.

Query (molecule): `O=C(O)[C@H]1O[C@@H](N(c2ccc(OC(F)(F)F)cc2)c2ccc3cccc(Cl)c3n2)[C@H](O)[C@@H](O)[C@@H]1O` ; field requested: Cmax
7910

====

PROTOCOL_DESCRIPTION: First-in-man PK: compound (1) plasma levels after single oral ascending dose of compound (2)
Type: in vivo, human
ASSAY_SETUP: male, human, plasma, po, 100 mg, 100 mg compound (2) single oral, N=6; read-out: AUC0-∞, Mean
ATTRIBUTE_MEASURED: AUC(0-inf)

Query (compound): `O=C(O)[C@H]1O[C@@H](N(c2ccc(OC(F)(F)F)cc2)c2ccc3cccc(Cl)c3n2)[C@H](O)[C@@H](O)[C@@H]1O` ; field requested: AUC(0-inf)
505 µg·h/mL

====

PROTOCOL_DESCRIPTION: First-in-man PK: compound (1) plasma levels after single oral ascending dose of compound (2)
Type: in vivo, human
ASSAY_SETUP: male, human, plasma, po, 50 mg, 50 mg compound (2) single oral, N=6; read-out: AUC0-t, Mean
ATTRIBUTE_MEASURED: AUC(0-t) (µg·h/mL)
Respond with the bare value in µg·h/mL.

Query (compound): `O=C(O)[C@H]1O[C@@H](N(c2ccc(OC(F)(F)F)cc2)c2ccc3cccc(Cl)c3n2)[C@H](O)[C@@H](O)[C@@H]1O` ; field requested: AUC(0-t)
209

====

PROTOCOL_DESCRIPTION: First-in-man PK: compound (1) plasma levels after single oral ascending dose of compound (2)
Assay type: in vivo, human
ASSAY_SETUP: male, human, plasma, po, 100 mg, 100 mg compound (2) single oral, N=6; read-out: t1/2, GM (geometric mean) (converted)
ATTRIBUTE_MEASURED: half-life (h)
Respond with the bare value in h.

Query (compound): `O=C(O)[C@H]1O[C@@H](N(c2ccc(OC(F)(F)F)cc2)c2ccc3cccc(Cl)c3n2)[C@H](O)[C@@H](O)[C@@H]1O` ; field requested: half-life
111

====

PROTOCOL_DESCRIPTION: First-in-man PK: compound (1) plasma levels after single oral ascending dose of compound (2)
Type: in vivo, human
ASSAY_SETUP: male, human, plasma, po, 50 mg, 50 mg compound (2) single oral, N=6; read-out: Cmax, Mean
ATTRIBUTE_MEASURED: Cmax (ng/mL)
Respond with the bare value in ng/mL.

Query (compound): O=C(O)[C@H]1O[C@@H](N(c2ccc(OC(F)(F)F)cc2)c2ccc3cccc(Cl)c3n2)[C@H](O)[C@@H](O)[C@@H]1O [Compound 1] ; field requested: Cmax
2630

====

PROTOCOL_DESCRIPTION: First-in-man PK: compound (1) plasma levels after single oral ascending dose of compound (2)
Assay type: in vivo, human
ASSAY_SETUP: male, human, plasma, po, 100 mg, 100 mg compound (2) single oral, N=6; read-out: Cmax, GM (geometric mean)
ATTRIBUTE_MEASURED: Cmax (ng/mL)
Respond with the bare value in ng/mL.

Query (compound): `O=C(O)[C@H]1O[C@@H](N(c2ccc(OC(F)(F)F)cc2)c2ccc3cccc(Cl)c3n2)[C@H](O)[C@@H](O)[C@@H]1O` ; field requested: Cmax
5400

====

PROTOCOL_DESCRIPTION: First-in-man PK: compound (1) plasma levels after single oral ascending dose of compound (2)
Type: in vivo, human
ASSAY_SETUP: male, human, plasma, po, 200 mg, 200 mg compound (2) single oral, N=6; read-out: AUC0-t, GM (geometric mean)
Procedure: The present document details the pharmacokinetic (PK) results obtained in a first-in-man study with compound (2) consisting in a single oral ascending dose in healthy male subjects. Four (4) dose levels were investigated (50, 100, 150, and 200 mg). […] In this study, plasma levels of compound (1) were measured. […] Cmax The observed maximum concentration measured in plasma was obtained directly from the concentration-time data. […]
ATTRIBUTE_MEASURED: AUC(0-t) (µg·h/mL)
Respond with the bare value in µg·h/mL.

Query (compound): `O=C(O)[C@H]1O[C@@H](N(c2ccc(OC(F)(F)F)cc2)c2ccc3cccc(Cl)c3n2)[C@H](O)[C@@H](O)[C@@H]1O` ; field requested: AUC(0-t)
436

====

PROTOCOL_DESCRIPTION: First-in-man PK: compound (1) plasma levels after single oral ascending dose of compound (2)
Type: in vivo, human
ASSAY_SETUP: male, human, plasma, po, 200 mg, 200 mg compound (2) single oral, N=6; read-out: Cmax, GM (geometric mean)
ATTRIBUTE_MEASURED: Cmax (ng/mL)
Respond with the bare value in ng/mL.

Query (compound): `O=C(O)[C@H]1O[C@@H](N(c2ccc(OC(F)(F)F)cc2)c2ccc3cccc(Cl)c3n2)[C@H](O)[C@@H](O)[C@@H]1O` ; field requested: Cmax
5900
